I'd be grateful if you could share measured half-life for these entries.
Test: Half life in human plasma
Assay type: ADME, cell-free
Answer in min, number only, no unit symbol.

Query (compound): CN(CC(=O)O)C(=O)[C@@H](N)CCC(=O)OCCOCn1cnc2c(=O)[nH]c(N)nc21 ; field requested: half-life
72.7

Moving on to the next compound: CCCN(CCC)Cc1cccc(C(=O)OCCOCn2cnc3c(=O)[nH]c(N)nc32)c1
0.8

Moving on to the next compound: O=C(OCN(C(=O)c1ccccc1)c1ccccc1)c1ccccc1
40

Moving on to the next compound: CC(C)Cc1ccc([C@H](C)C(=O)OCCn2ccnc2)cc1
960

Moving on to the next compound: C[C@H](NC(=O)[C@H](N)CC(=O)OCc1ccc(F)cc1)C(=O)O
260

Moving on to the next compound: Cc1cn([C@H]2C=C[C@@H](COC(=O)CN(C)C)O2)c(=O)[nH]c1=O
30

Moving on to the next compound: CCCCC(=O)OC[C@H]1O[C@@H](n2cnc3c(NC4CCCC4)ncnc32)[C@H](O)[C@@H]1O
18

Moving on to the next compound: NCCCC[C@H](N)C(=O)O[C@H]1C[C@H](n2cc(F)c(=O)[nH]c2=O)O[C@@H]1CO
51

Moving on to the next compound: Nc1nc2c(ncn2COCCOC(=O)c2cccc(CN3CCOCC3)c2)c(=O)[nH]1
4.6

Moving on to the next compound: CCOC(=O)CNC(=O)OCN(c1ccc([N+](=O)[O-])cc1Oc1ccccc1)S(C)(=O)=O
954

Moving on to the next compound: COC(=O)[C@@H](C)c1ccc2cc(OC)ccc2c1
316

Moving on to the next compound: CCCC(CCC)C(=O)OCN(CC(=O)OCC)C(=O)c1ccccc1
1320

Moving on to the next compound: CCCSc1ccc2c(c1)nc(NC(=O)OC)n2COC(=O)c1ccc(CN)cc1.Cl.Cl
55.8

Moving on to the next compound: Cc1noc(N(COC(=O)c2ccccc2)S(=O)(=O)c2ccc(N)cc2)c1C
5.78

Moving on to the next compound: Cc1cc(C)nc(N(COC(=O)c2ccccc2)S(=O)(=O)c2ccc(N)cc2)n1
41.4

Moving on to the next compound: CC(C)Cc1ccc([C@@H](C)C(=O)OCC(=O)N(C)C)cc1
1.5

Moving on to the next compound: CCOC(=O)CNC(=O)OCOC(=O)c1ccccc1
0.24

Moving on to the next compound: Cc1ncc([N+](=O)[O-])n1CCOC(=O)CCCCCCCCC(=O)OCCn1c([N+](=O)[O-])cnc1C
10.2

Moving on to the next compound: Nc1ccc(S(=O)(=O)N(COC(=O)c2ccccc2)c2ncccn2)cc1
1.38

Moving on to the next compound: CC(C)Cc1ccc([C@@H](C)C(=O)OCCn2ccnc2)cc1
19

Moving on to the next compound: CCN(CC)C(=O)COC(=O)[C@H](C)c1ccc(-c2ccccc2)c(F)c1
1.5

---

Assay: Half life in human plasma
Format: ADME, cell-free
measuredParameter: half-life (min)
Answer in min, number only, no unit symbol.

Query (compound): NCCCC[C@H](N)C(=O)OC[C@H]1O[C@@H](n2cc(F)c(=O)[nH]c2=O)C[C@@H]1OC(=O)[C@@H](N)CCCCN ; field requested: half-life
29.5

Moving on to the next compound: C[C@H](NC(=O)[C@H](N)CCC(=O)OCc1ccc(F)cc1)C(=O)O
120

Moving on to the next compound: CCN(CC)C(=O)COC(=O)[C@@H](C)c1ccc(CC(C)C)cc1
1.4

Moving on to the next compound: CCC(CC)C(=O)Oc1ccc2c3c1O[C@H]1C(=O)CC[C@@]4(O)[C@@H](C2)N(CC2CC2)CC[C@]314
2680

Moving on to the next compound: CC(C)Cc1ccc([C@H](C)C(=O)OCC(=O)N(C)C)cc1
7

Moving on to the next compound: Cc1nccn1CCOC(=O)[C@H](C)c1ccc(CC(C)C)cc1
5.2

Moving on to the next compound: Nc1nc2c(ncn2COCCOC(=O)c2cccc(CN3CCCCC3)c2)c(=O)[nH]1
8.5

Moving on to the next compound: Nc1nc(O)c2ncn(COCCOC(=O)c3ccc(CN4CCOCC4)cc3)c2n1
3.7

Moving on to the next compound: CCOC(=O)CN(COC(=O)[C@@H]1N2C(=O)[C@@H](NC(=O)c3c(-c4c(Cl)cccc4Cl)noc3C)[C@H]2SC1(C)C)C(=O)c1ccccc1
10.1
